assay.system: T1, HIV-1 integrase (Human immunodeficiency virus type 1 group M subtype B, UniProt P04585)
T1 construct: assayed by the 3′-processing reaction of HIV-1 integrase
assay.procedure: HIV-integrase inhibition (3'-processing, strand transfer, disintegration)
Assay type: biochemical
recorded.conditions: strand transfer and disintegration
Procedure: In FIG. 4A, the inhibition on HIV-integrase was assayed by the 3′-processing reaction of HIV-1 integrase (Lee-Huang et al., 1995). […] The effect was measured by the inhibition of the formation of labeled 19-mer product by autoradiography of urea gels. […] In FIG. 4B, topological inactivation was measured by the conversion of supercoiled HIV-LTR DNA (S) into relaxed (R) and linear (L) forms by agarose gel electrophoresis (Huang et al., 1992). […]
result.type: HIV-integrase inhibition

[[record]]
molecule = "MVF21: MAP30 V8 fragment, 20-21 kDa, residues 1-187 of SEQ ID NO:1 (protein, listed as Momordica charantia) DVNFDLSTATAKTYTKFIEDFRATLPFSHKVYDIPLLYSTISDSRRFILLDLTSYAYETISVAIDVTNVYVVAYRTRDVSYFFKESPPEAYNILFKGTRKITLPYTGNYENLQTAAHKIRENIDLGLPALSSAITTLFYYNAQSAPSALLVLIQTTAEAARFKYIERHVAKYVATNFKPNLAIISLE"
result = "active"

[[record]]
molecule = "MLF25: MAP30 Lys-C fragment, 24-25 kDa, residues 13-232 of SEQ ID NO:1 (protein, listed as Momordica charantia) TYTKFIEDFRATLPFSHKVYDIPLLYSTISDSRRFILLDLTSYAYETISVAIDVTNVYVVAYRTRDVSYFFKESPPEAYNILFKGTRKITLPYTGNYENLQTAAHKIRENIDLGLPALSSAITTLFYYNAQSAPSALLVLIQTTAEAARFKYIERHVAKYVATNFKPNLAIISLENQWSALSKQIFLAQNQGGKFRNPVDLIKPTGERFQVTNVDSDVVK"
result = "active"

[[record]]
molecule = "MLF21: MAP30 Lys-C fragment, 20-21 kDa, residues 13-195 of SEQ ID NO:1 (protein, listed as Momordica charantia) TYTKFIEDFRATLPFSHKVYDIPLLYSTISDSRRFILLDLTSYAYETISVAIDVTNVYVVAYRTRDVSYFFKESPPEAYNILFKGTRKITLPYTGNYENLQTAAHKIRENIDLGLPALSSAITTLFYYNAQSAPSALLVLIQTTAEAARFKYIERHVAKYVATNFKPNLAIISLENQWSALSK"
result = "active"

